Documented Percent variations of plasma cholesterol with respect to the controls across a set of compounds
tested on: plasma levels of cholesterol; test: Effect of oral administration on plasma levels of cholesterol in the empty rat; type: in vivo, rat (COBS CD (SD) BR male); details: 100 mg/kg oral referred to nicotinic acid, 10 h, empty rat

O=C(OCC(COC(=O)c1cccnc1)(COC(=O)c1cccnc1)COC(=O)c1cccnc1)c1cccnc1 [NICERITROLE, pentaerithritol-tetranicotinate]	-10%
O=C(OC[C@H](OC(=O)c1cccnc1)[C@@H](OC(=O)c1cccnc1)[C@H](OC(=O)c1cccnc1)[C@@H](COC(=O)c1cccnc1)OC(=O)c1cccnc1)c1cccnc1 [SORBINICATE, D-glucitol hexanicotinate]	-15%
O=C(N[C@H]1C(OC(=O)c2cccnc2)O[C@H](COC(=O)c2cccnc2)[C@@H](OC(=O)c2cccnc2)[C@@H]1OC(=O)c1cccnc1)c1cccnc1 (stereo partly shown) [GLUN, N-nicotinoyl-glucosamine tetranicotinate]	-29%

Let us move to another entry and its Percent variations of plasma cholesterol with respect to the controls.
O=C(O)c1cccnc1 yielded Percent variations of plasma cholesterol with respect to the controls of -17%
